- TEST METHOD NOTES: protein stability index of a GFP-peptide fusion (yeast GPS) (PSI 1-4); higher = more stable; sorted into four equal gates, so the index is relative within each strain
- MEASUREMENT SETUP: pdr5∆
Values of protein stability index greater than or equal to 3 map to True; values below map to False.

* VVETITSLLNKVLKSGS [RRP42] | False
* LNEITNSKVNKLNIETM [DSN1] | False
* TYGFLTPNLWAEQPLPV [RPS2] | False
* RDRTSGQKLLAIKYGYE [SRB4] | True
* VAPFMIKYEFNGIPLKS [YMR129W/POM152] | False
* DFDDSTAQEINFKMLVL [IRR1] | False
* SEEINQYVTQIEQEKQE [PRE6] | False
* FDLVRNIVKQNEGIDLD [SMC2] | True
* DTTVPKRLGPKRANNIR [RPS6A] | True
* EKGKKVSGFKDEVLETV [RPS1B] | False
* DDDDNNESSSNTTVISD [DIS3] | True

====

- TEST METHOD NOTES: protein stability index of a GFP-peptide fusion (yeast GPS) (PSI 1-4); higher = more stable; sorted into four equal gates, so the index is relative within each strain
- MEASUREMENT SETUP: pdr5∆
Label scheme for protein stability index: lower than 3 is not met, 3 and above is met.

* STFREWKNLVLKLSQAF [YJR042W/NUP85] | not met
* PKRKRRLPVSEDTNTKP [YOR098C/NUP1] | not met
* KKLPRKTHRGLRKVACI [RPL3] | met
* QNAKLLANLIRDALRNI [RRP6] | not met
* GTYIQERNPSQRPQRRY [RPS10B] | met
* RENIAMLKRFFPGVKGL [SMC1] | not met
* PSVGVKTMKTFVIHIQE [RPB5] | not met
* DGSQQNLQQDKTNFQDV [REC8] | met
* LAYSKIVNGQTFSYVDS [YMR129W/POM152] | not met
* IYAKQQEQLKQMDQQLQ [ARP7] | not met
* LYHHTTKTILSGTDGST [SRP72] | not met
* HFVRDLGTIESAQAETE [DIS3] | not met
* VNNCIWALKSSLNSMTN [RGR1] | not met
* LLSEHDDHNGEVWSVSW [YGL100W/SEH1] | not met
* DDSFSLLRIQMLLCVSY [PCI8] | not met
* RDRKLITDKGTVDGRLY [YJL039C/NUP192] | met
* MCVSKGNASLKYIALQV [YCG1] | not met
* IITKNENFLKEVFQLRI [GAL11] | not met
* SYWQKSYFKNSVIVKFH [LIN1] | not met
* YNIELPLPPRIDPSVTM [RPT1] | not met
* ISLYFNDILDELLCGMA [ECM29] | not met
* NPYNIVPQGKIVALTNA [SMC3] | not met
* QTLSSHLEALQPLFSTV [PGD1] | not met
* TAVVNNAAPANVTGGKA [SWI1] | not met
* TSIANAFRRIMISEVPS [RPC40] | not met
* TFLLNNKNIDIGLLNKS [RPN2] | met
* FHKYRLKRNSWPKTRGV [RPL2A] | not met
* KVTKIWSKESNYDCKVI [PRP28] | not met
* QTRAKLLDNEIRIFRSE [RPT5] | met
* PTSAQKSAVSHAPAYHR [IRR1] | not met
* LKMQQQQQQQQQQQQQQ [GAL11] | not met
* RPPVKAILQEKILSILN [ECM29] | not met
* LADRDEFIQDSAARGLS [ECM29] | not met
* EIKDGRSLFLRNRGKIH [YMR153W/NUP53] | not met
* YDRNSNNNHKDKKLLRR [SWI1] | met
* TNFSPTPANNGENAAEK [SNF2] | not met
* FVDENTFQRVCQYMVAC [RPN1] | not met
* ELRFPSPTPIQRITIPN [PRP28] | not met
* VFNDAHVLNKVTLASIL [RPN1] | not met
* SDEEESVLDEQEQYQTN [SNU114] | met
* AITADLGSSEAENLLQL [YGL172W/NUP49] | not met
* KAANFIQNQSPQFNSPY [SWI1] | not met
* INLTQTYGISVVDVALK [NUT1] | not met
* MAQTATQQQPGAPGANA [SRP54] | met
* RIIEKSVRRSGALDVEG [RRP45] | not met
* LNGGLQFVPELKEFTAK [FAS2] | not met
* FEKKELQEKFLNQIATL [IRR1] | not met
* RLMMNSKVGSADTGRDD [RPN11] | met
* NKVVVNLNDAGLALQLF [RPN2] | not met

====

- TEST METHOD NOTES: protein stability index of a GFP-peptide fusion (yeast GPS) (PSI 1-4); higher = more stable; sorted into four equal gates, so the index is relative within each strain
- MEASUREMENT SETUP: ubr1∆
# protein stability index annotations
METRIC NAME: protein stability index

* VTPTKTEVIIRATRTQD [RPS3] | 1.91
* PSLELSAEYLQMSLEAN [YJR042W/NUP85] | 2.4
* DIWSISKKRQAEKLVPL [YML031W/NDC1] | 2.55
* VYKIYNHVMPLKPVDKL [SIN4] | 1.62
* KVQISKIPILAQHESFL [RPN9] | 2.41
* HTQANEPNSAKKIRFLQ [RGR1] | 3.33
* YSLEAIKLGSTAIGIAT [PUP2] | 1.32
* QTDADRVKDPQWLIMLG [RIP1] | 2.6
* LSDRANKNQDAFEAELS [ARP9] | 3.31
* GELFLNESWKSSFEKFN [SRP72] | 3.24
* DTLKDISTSFCFICLLH [BRN1] | 1.95
* LSNIPLLLITHHSWSQS [ARP9] | 1.96
* AEASFTFGTKHAADSQN [YLR335W/NUP2] | 2.67
* SEYKVAFPHLYNSRPRS [PRP8] | 2.77
* DKDSTKEVASLPNKSTI [FAS2] | 3.21
* ITNKHQEGLAKFGACVA [RPN2] | 2.51
* SKKIVPSPKKVAIDQDK [SIR4] | 2.92
* IVAALPISEKGLTLSTT [RPP1] | 2.48
* FLQRVRVWEYRQKNVIH [RPL15A] | 2.02
* DEYLGSHTDQPANVLLV [NNF1] | 2.92
* SPFGGSSHAKGIVLEKL [RPS23A] | 3.17
* GDQFLRYVNLLGVTYSS [PRE4] | 2.02
* YKYKMRYVYAHFPINVN [RPL9A] | 2.51
* FVCEKSIEFAKREKRVF [RPN6] | 2.41
* LRRRTASHNVRRIPKRM [POP1] | 2.75
* HAKFSPVSTASYRLLPQ [RPC40] | 2.23
* KRHSYAQSSHIRAIRKV [RPS1A] | 2.45
* FQLLEPLSTYNKNGNAV [PGD1] | 2.74
* SIIGNKNNNYTWEECVF [REC8] | 2.43
* KAEFSKEMTLQKNMNDL [YIL149C/MLP2] | 3.07
* NQIWNIALNLASKKFGK [SSN2] | 3.08
* KVQDAIEEEIFDDSSRI [LIN1] | 3.06
* EITGTSCLTFFQALDSE [ITC1] | 1.82
* IQEYQLCDNFNHFSLSY [COR1] | 2.27
* MLNLIDDVKNILNAKYT [RPN6] | 2.86
* GMMSTTGTARLNSMPNN [YJL039C/NUP192] | 3.22
* KLTSEETVFNYRLMIKR [GRR1] | 2.82
* ESMDFLVLADAFDIELS [YCS4] | 2.64
* SVRLFSFLDPLNYGNIC [YJL039C/NUP192] | 2
* AIRKNGQIDFWYQFSNS [SIN4] | 2.52
* PPQQTYHFPIFNKYADP [RPN4] | 2.65
* LQNCCIIDVGTHHTDII [ARP9] | 2.28
* LATLLGHNDWVSQVRVV [ASC1] | 1.8
* EDLLECLDRCKEQYNRY [MTR3] | 3.38
* QQEAKYRNNEPAGFTHK [YDL088C/ASM4] | 2.83
* PSFMLKHHQLFYMLNAG [RPN1] | 1.12
* SQKQTLIKKPLTVFYAI [SSN3] | 2.01
* MKQPYVFVKKHHELIKV [SSN2] | 1.2
* NSSTSPAPSIPSTGFKF [YLR335W/NUP2] | 2.21
* KARNGLDYVRTPAAATS [SNF2] | 2.35
* PSLKFKPKAVARKSKEE [RPC53] | 2.88
* SVKESTGMSSMSPFLRK [SRB4] | 3.15
* ACHVEVPYVLMGQIATF [COB] | 1.94
* TLESLENLVVADLESFA [COR1] | 2.3
* PSMKKIKIEPSADDDVN [SIR3] | 2.73
* SILGKFCPIVEEIVSNS [YCS4] | 1.55
* IRAQNFKSALANLEDII [RRP6] | 1.41
* QLQGPQWMNEMVERWAN [SOH1] | 3.06
* NSLKETLQDFHLIFSNA [SNF2] | 2.44
* CVQLIKCLVEKSICFEN [SWI1] | 2.74
